// reported melting point for each item listed

# Input Smiles, melting point
measured = [
    ("O=C(Nc1ccccc1)c1nc(-c2ccc(Cl)cc2Cl)c(-c2ccc(Cl)cc2)s1", "167 to 168 °C"),
    ("O=C(NN1CCCCC1)c1nc(-c2ccc(Cl)cc2Cl)c(-c2ccc(Br)cc2)s1", "171 to 173 °C"),
    ("O=C(NN1CCCCCC1)c1nc(-c2ccc(Cl)cc2Cl)c(-c2ccc(Cl)cc2)s1", "185 to 186 °C"),
    ("O=C(NCCCC(F)(F)F)c1nc(-c2ccc(Cl)cc2Cl)c(-c2ccc(Cl)cc2)s1", "99 to 101 °C"),
]
